Test System: T1, Cbx7.wt chromodomain (tags removed) (human, UniProt O95931 4-75)
T1 construct: also called Cbx7-chromo
T1 sequence: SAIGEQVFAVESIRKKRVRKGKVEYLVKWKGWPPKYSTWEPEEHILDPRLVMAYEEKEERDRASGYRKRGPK
Assay Notes: fluorescence polarization, FITC-peptide 0.5 nM
Measurement Type: Kd (µM)
Report the value in µM with no unit label.

Reported Kd, binder KQLATKAARKSAPATGGVK (Kme3 (trimethyl-lysine) at the 10th residue (KQLATKAARKme3SAPATGGVK); N-terminus biotin + aminohexanoic acid linker, or FITC at the N-terminus for fluorescence polarization, Synthetic peptide (GenScript); One entry is used for the biotinylated and the FITC-labelled form) [H3K27me3 peptide] : ____
110
